# system.tested: SARS-CoV-2 spike protein bearing furin mutation and truncation in retention sequence (on pseudoviral envelope) (SARS-CoV-2, UniProt P0DTC2 14-1273)
# test.description: cell-based or functional assay
Please go through the items and note down their PV neutralisation IC50.
Numbers only, in nM.

Illustrative cases are given below, each with its answer.
| binder | unit.symbol | PV neutralisation IC50 |
| --- | --- | --- |
| YANG-2108 (antibody, V domains shown) VH: QVQLQESGPGQVKPSGTLSLTCAVSGGSIRSSNWWIWVRQPPGKGLEWIGEIYHGGNTNYSPSLKSRVSISVDKSKNHFSLNLTSVTAADTAVYYCARALYDVGGVFDIWGQGTMVTVSS VL: QSALTQPASVSGSPGQSITISCTGSSSDVGGYNYVSWYQQHPGKAPKLMIYDVSERPSGVSNRFSGSKSGNTASLTISGLQAEDEGDYYCCSYAANSNVVFGGGTKLSVL | nM | 0.27 |
| YANG-2107 (antibody, V domains shown) VH: QVQLQESGPGLVKPSGTLSLTCAVSGGSIRSSNWWIWVRQSPGKGLEWIGEIYHGGNTNYNPSLKSRVTLSVDKSKNQFSLKLSSVTAADTAVYYCARALYDIGGVFDIWGQGTMVTVSS VL: QSALTQPASVSGSPGQSISISCTGTSSDIGGYNYVSWYQQHPGKAPKLMIYDVSERPSGVSNRFSGSKSGNTASLTISGLQAEDEGDYYCCSYAANSNVVFGGGTKLSVL | nM | 0.3 |

Shift focus to the following entry.
Recorded result, YANG-2204 (antibody, V domains shown) VH: QMQLVQSGAEVKKPGASVKFSCKTSGYTFTNYYMVWVRQAPGQGLEWMGIIKPSGGNTIYAQKFQGRVTMTRDTSTNTVYMDLTSLRSEDTAVYYCARTGDRAFDVWGQGTMVTVSS VL: QSVLTQPPSVSAAPGQKVTISCSGSSSNIGNNYVSWYQQLPGTAPKLLIYDNNKRPSGIPDRFSGSKSGTSATLGITGLQTGDEADYYCGTWDSSLGAGVFGGGTKLTVL , PV neutralisation IC50: 3.3
